molecular target: butyrylcholinesterase (BuChE) (Homo sapiens); construct: purchased Sigma 9001-08-5 (this is the CAS number of cholinesterase, not a catalogue number); experiment: biochemical; conditions: printed without unit in Figure 2 (second value of each pair); read-out: BuChE IC50
Sequence (P06276 29-602): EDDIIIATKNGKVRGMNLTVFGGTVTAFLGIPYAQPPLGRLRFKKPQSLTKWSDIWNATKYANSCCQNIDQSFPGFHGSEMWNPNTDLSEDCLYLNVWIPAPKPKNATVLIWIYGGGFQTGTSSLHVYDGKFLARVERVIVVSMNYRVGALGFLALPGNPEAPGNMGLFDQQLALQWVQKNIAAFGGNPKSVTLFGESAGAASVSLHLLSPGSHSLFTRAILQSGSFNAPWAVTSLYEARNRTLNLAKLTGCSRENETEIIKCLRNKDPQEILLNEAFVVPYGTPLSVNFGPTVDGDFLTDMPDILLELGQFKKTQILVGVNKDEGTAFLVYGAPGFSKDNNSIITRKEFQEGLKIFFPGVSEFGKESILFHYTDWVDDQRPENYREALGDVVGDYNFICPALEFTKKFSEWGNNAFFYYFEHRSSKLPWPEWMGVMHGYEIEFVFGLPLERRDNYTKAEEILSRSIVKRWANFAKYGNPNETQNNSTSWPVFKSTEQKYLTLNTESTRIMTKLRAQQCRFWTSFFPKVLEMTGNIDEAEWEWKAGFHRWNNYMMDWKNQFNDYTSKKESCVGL
// values below are reported pIC50
pIC50 (log units): -log10 of the concentration in mol/L.

line_notation	pIC50
O=C1N/C(=N/c2nnc(-c3ccc4[nH]ncc4c3)s2)S/C1=C/c1ccc(F)cc1O	6.01

Which value of pIC50 has been reported for "O=C1N/C(=N/c2nnc(-c3ccc4[nH]ncc4c3)s2)S/C1=C/c1cccc(F)c1" in the records? 5.92

Next compound: "O=C1N/C(=N/c2nnc(-c3ccc4[nH]ncc4c3)s2)S/C1=C/c1cc(Cl)c(Cl)c([N+](=O)[O-])c1" 5.92

Now consider "O=C1N/C(=N/c2nnc(-c3ccc4[nH]ncc4c3)s2)S/C1=C/c1ccc(C(F)(F)F)cc1" . 6.05

Note, next up: "O=C1N/C(=N/c2nnc(-c3ccc4[nH]ncc4c3)s2)S/C1=C/c1ccccc1F" 5.90
